molecular target: ZFP SBS#1105 (synthetic); test: EMSA; conditions: tags: MBP fusion
Sequence (chain, as listed by the source): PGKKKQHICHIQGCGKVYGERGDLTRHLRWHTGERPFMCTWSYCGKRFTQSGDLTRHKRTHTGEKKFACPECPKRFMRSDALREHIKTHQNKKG
pKd: −log10 of the molar value.
measured.endpoint: pKd

1. CTGGCAGCC (dsDNA) DNA 1: CTGGCAGCC DNA 2: GGCTGCCAG :: 8.61
